Substrate: O=C(O)C(=O)C[C@@H](O)CO
PROCEDURE_DETAILS: purified protein, by the assay type
Design: coupled assay with PpKGSADH, NADH formation at 340 nm, Michaelis-Menten fit, 25 °C, pH 7.5
MEASUREMENT_SETUP: pH 7.5; 25.0 °C
PROPERTY: kcat
I'd appreciate it if you wrote the number followed by its unit.

Please state, for each entry, its recorded kcat.
1. CcD-KdpD2 (Caulobacter vibrioides NA1000) (protein, C-terminal His6 tag (kept), pET vector, E. coli BL21(DE3), HisTrap purified) MGVSEFLPEDWKAATLLGRIDFGEGPTPVLVRGGRVEDVSKIAPTVADLMNAFQPGAVIPRGEDKGPLEALDIRPVWEDPDGAAPVKLLAPVDLQCLKAAGVTFAVSTLERVIEERARGDAGEALKIRTLLAERMGGDLKSVEPGSQGAQRLKDALIADGLWSQYLEVAIGPDAEIFTKGPTLSSMGWGDQVGVRYDSHWNNPEPEVVLLCDGSGLIRGAALGNDVNLRDFEGRSALLLSKAKDNNASCAIGPFFRLFDETFGLDDVRSAEVELKITGRDNFVLDGKSNMSLISRDPAVLAGQAYGKQHQYPDGFALFLGTMFAPIQDRDTPGQGFTHKVGDRVRVSTPKLGVLENEVTTCDKAKPWTFGISALIRNLAGRGLL
2. CnD-KdpD (Cupriavidus necator H16) (protein, C-terminal His6 tag (kept), pET vector, E. coli BL21(DE3), HisTrap purified; strain given inconsistently (H16 gDNA vs N-1)) MALPLTLSATQTLPADGLAGTLVGRAWIPASDGAPAGPAVVVLRPAGVFDISDVAPTMSTLLEQGDPVTVVHNTPGRWIGKLDDLLANTADPRGSDSVARLLAPCDLQVIKAAGVTFAGSLVERVIEEQTKGDPQGAAEVRNRIQALVGERLSRIRPGSREAGELKALLIEHGMWSQYLEVGIGPDAEIFTKAPLLSALGTGTEIGLHPGSAWNNPEPEIVLAINSRGDVLGATLGNDVNLRDFEGRSALLLGKAKDNNGSCAIGPFLRLFDQSLSLDDVRRATVDLRVDGLDGFVLSGTSSMDQITRDPLELAEQVMGATHQYPDGAMLFLGTLFAPVEDRDTAGGGFTHKDGDLVTISSRQLGSLVNRVGRSDRIAPWTFGVRALMANLAARGHTTF
3. PxD-KdpD (Paraburkholderia xenovorans LB400) (protein, C-terminal His6 tag (kept), codon-optimised synthetic gene, E. coli BL21(DE3), HisTrap purified) MSATSPSSFLPDDLGQALLVGRVWRKTDQHEGPSVVVVRGGEVFDITATVPTTADLFDREDAAPLARTAPGVSLGAVAQLIASNLPGAAAPALRLLAPCDVQAIKACGVTFAVSLIERVIEEQAAGDPAKAKEVRDTIASMIGTDLSKIEPGSDAAMKLKAELERRGAWSQYMEVGIGPDAEVFSKSQPMSAVGFGADVGLLAASTWNNPEPEIVLAVNSRGEIVGATLGNDVNLRDIEGRSALLLGKCKDNNGSCAIGPFVRLFDESFSLDSVRTASVALRVEGADDGFVLEGVSHMSEISRDPANLVAQTWGRHHQYPDGFMLFLGTMFSPIKDRDAPGAGFTHHLGDLVTISTPQLGALTNTVRLSTEIEPWTFGVRALYRNLAARGLLASA

1: 9.67 s⁻¹; 2: 4.24 s⁻¹; 3: 18.7 s⁻¹

Entry source: paper PMC7374468
